Catalogue of HitlevelM values
System: P. falciparum male gametocytes
Assay: P. falciparum Dual Gamete Formation Assay (PfDGFA), male readout (exflagellation)
Format: cell-based, Plasmodium falciparum NF54
Details: 2µM, 24h preincubation; hits selected on >50% inhibition in the male readout across replicates
MEASUREMENT_TYPE: HitlevelM

* CCc1c(CCNCCCCCCNCc2ccc3c(c2CC)OCO3)ccc(OC)c1OC.Cl | 1
* O=C(Nc1ccc(C(=O)OCC2CCCCC2)cc1)N[C@@H](Cc1ccc(O)cc1)C(=O)NC1CCN(Cc2ccc(O)cc2)C1.O=C(O)C(F)(F)F (stereo partly shown) | 0
* CC1(CCN2CCC(c3c[nH]c4cnccc34)CC2)CCCc2c(Br)cccc2C1=O.Cl (stereo not shown) | 1
* COc1c(CNCCCCCCNCc2c(OC)c(OC)c3ccccc3c2OC)c(OC)c2ccccc2c1OC.CS(=O)(=O)O | 1
